Test system: PC-3 prostate
assay_protocol: NCI-60 one-dose screen, 48 h (100 = growth as untreated, 0 = no growth, -100 = all killed)
study_conditions: 10 µM unless noted
About 83,000 compounds went through this panel and 20% of them were active in at least one assay; those are over-represented in the sample as a whole.

{"molecular_string": "Cc1ccc(O)c(C(=O)O)c1", "growth [%]": 104}
{"molecular_string": "[O-][n+]1ccccc1CCN(O)CCc1cccc[n+]1[O-]", "growth [%]": 91.8}
{"molecular_string": "CS(=O)(=O)Nc1cc(-c2ccc3ncnc(Nc4ccc5[nH]ncc5c4)c3c2)cnc1Cl", "growth [%]": 76.8}
{"molecular_string": "C=C(C)[C@@H]1CC[C@]2(C(=O)N3CCN(C)CC3)CC[C@]3(C)[C@H](CC[C@@H]4[C@@]5(C)CCC(=O)C(C)(C)[C@@H]5CC[C@]43C)[C@@H]12", "growth [%]": 54.7}

* * *

System: NCI-H322M lung
assay_protocol: NCI-60 one-dose screen, 48 h (100 = growth as untreated, 0 = no growth, -100 = all killed)
study_conditions: 10 µM unless noted
About 83,000 compounds went through this panel and 20% of them were active in at least one assay; those are over-represented in the sample as a whole. Active and inactive are the calls of the source. How the source made its calls: active means growth percent below 10; inactive means the rest.

{"molecular_string": "COc1ccc(-n2cc(-c3cc(OC)c(OC)c(OC)c3)n(C(C)=O)c2=O)cc1", "growth": "78.8% (inactive)"}
{"molecular_string": "CC(=O)Nc1ccc(C(=O)Nc2cc(-c3ccccc3)ccc2N)cc1", "growth": "79.5% (inactive)"}
{"molecular_string": "O=C(Nc1ccc2ncnc(Nc3ccc(Oc4cccc(F)c4)c(Cl)c3)c2c1)c1ccc(CN2CCOCC2)cc1", "growth": "60.7% (inactive)"}

* * *

System: UACC-257 melanoma
assay_protocol: NCI-60 one-dose screen, 48 h
study_conditions: 10 µM unless noted
About 83,000 compounds went through this panel and 20% of them were active in at least one assay; those are over-represented in the sample as a whole. Calls of active or inactive are those of the source. How the source made its calls: active means growth percent below 10; inactive means the rest.
Outcome codes: active, inactive

{"compound": "CCCCCN1C=C/C(=C\\C(=O)N(C)c2cccc3ccccc23)c2ccccc21", "measurement_target": "UACC-257 melanoma", "category_label": "inactive"}
{"compound": "CCCOc1nc(SCCC)nc2c1cnn2-c1ccccc1", "measurement_target": "UACC-257 melanoma", "category_label": "inactive"}
{"compound": "CCc1c(Nc2ccc(C)cc2)[nH]c(N)nc1=S", "measurement_target": "UACC-257 melanoma", "category_label": "inactive"}
{"compound": "O=C(CCN1CCCC1)Nc1ccc2c(Nc3ccccc3)c3ccccc3nc2c1", "measurement_target": "UACC-257 melanoma", "category_label": "active"}
{"compound": "COc1ccc(-c2nc(SCC(C)C)nc(N/N=C(/C)c3ccc(OC)c(OC)c3)c2C#N)cc1", "measurement_target": "UACC-257 melanoma", "category_label": "inactive"}
{"compound": "CCCCOc1ccc(/C=N/Nc2cc(C)nc3ccc(Cl)cc23)cc1", "measurement_target": "UACC-257 melanoma", "category_label": "inactive"}
{"compound": "NC(=O)c1ccc[n+](CC(=O)N2CCN(c3cc4c(cc3F)c(=O)c(C(=O)O)cn4C3CC3)CC2)c1", "measurement_target": "UACC-257 melanoma", "category_label": "inactive"}
{"compound": "Clc1cc(Cl)cc(N2N=C(c3cccc(Nc4ccncc4)c3)CC2c2ccc3c(c2)OCO3)c1 (stereo not given)", "measurement_target": "UACC-257 melanoma", "category_label": "inactive"}
{"compound": "CCCc1cc2c(cc1Br)OCO2", "measurement_target": "UACC-257 melanoma", "category_label": "inactive"}
{"compound": "NC(=S)N/N=C/c1ccc(OC(=O)COc2cc(Cl)c(Cl)cc2Cl)cn1", "measurement_target": "UACC-257 melanoma", "category_label": "inactive"}
{"compound": "CN1C(=O)N(C)C2NC(N/N=C/c3ccccc3)=NC21 (stereo not given)", "measurement_target": "UACC-257 melanoma", "category_label": "inactive"}
{"compound": "O=C(O)CNC(=O)CN1C(=O)c2ccccc2C1=O", "measurement_target": "UACC-257 melanoma", "category_label": "inactive"}
{"compound": "O=C(Nc1ccc(Nc2ncccn2)cc1)NC1C=c2ccccc2=CC1 (stereo not given)", "measurement_target": "UACC-257 melanoma", "category_label": "inactive"}
{"compound": "CC1(C)[C@H](O)CC[C@]2(C)[C@@H]1CC[C@@]13C[C@@H](CC[C@H]12)[C@@](O)(CO)C3", "measurement_target": "UACC-257 melanoma", "category_label": "inactive"}
{"compound": "COc1ccc(-c2nc3sccn3c2/C=C/C(=O)c2cc(OC)c(OC)c(OC)c2)cc1", "measurement_target": "UACC-257 melanoma", "category_label": "inactive"}
{"compound": "COc1ccc(-c2ncc(-c3ccccc3)[nH]2)cc1OC", "measurement_target": "UACC-257 melanoma", "category_label": "inactive"}
{"compound": "O=C1/C(=C/c2ccc(O)cc2)COc2ccc(-c3ccccc3)cc21", "measurement_target": "UACC-257 melanoma", "category_label": "inactive"}
{"compound": "Clc1ccc(N2N=C(c3cccc(Nc4ccncc4)c3)CC2c2ccccc2)cc1 (stereo not given)", "measurement_target": "UACC-257 melanoma", "category_label": "inactive"}
{"compound": "Nc1c(C(=O)Nc2ccc(Cl)cc2)cc(-c2nc3ccccc3s2)c(=O)n1NS(=O)(=O)c1ccc(Cl)cc1", "measurement_target": "UACC-257 melanoma", "category_label": "inactive"}
{"compound": "CC(=O)OCCCCCNc1ccccc1", "measurement_target": "UACC-257 melanoma", "category_label": "inactive"}
{"compound": "COc1ccncc1C#Cc1cncc(C(=O)Nc2ccc(CN3CCN(C)CC3)c(C(F)(F)F)c2)c1", "measurement_target": "UACC-257 melanoma", "category_label": "inactive"}
{"compound": "O=C1Nc2c(ccc(Cl)c2Cl)/C1=C/c1ccccn1", "measurement_target": "UACC-257 melanoma", "category_label": "active"}
{"compound": "CN1CCN(c2cc(F)c(NC3=C(Cl)C(=O)c4ncccc4C3=O)c(F)c2)CC1", "measurement_target": "UACC-257 melanoma", "category_label": "active"}
{"compound": "c1cnc2nc3c(cc2c1)oc1ccccc13", "measurement_target": "UACC-257 melanoma", "category_label": "inactive"}
{"compound": "COc1ccc2nc(N=Nc3c(O)ccc4ccccc34)sc2c1", "measurement_target": "UACC-257 melanoma", "category_label": "inactive"}
